# assay system: p38a activated, mitogen-activated protein kinase-activated protein kinase 2 (MAPKAP-K2 or MK2) enzyme (Homo sapiens (Human), UniProt P49137)
# Sequence (P49137 whole entry): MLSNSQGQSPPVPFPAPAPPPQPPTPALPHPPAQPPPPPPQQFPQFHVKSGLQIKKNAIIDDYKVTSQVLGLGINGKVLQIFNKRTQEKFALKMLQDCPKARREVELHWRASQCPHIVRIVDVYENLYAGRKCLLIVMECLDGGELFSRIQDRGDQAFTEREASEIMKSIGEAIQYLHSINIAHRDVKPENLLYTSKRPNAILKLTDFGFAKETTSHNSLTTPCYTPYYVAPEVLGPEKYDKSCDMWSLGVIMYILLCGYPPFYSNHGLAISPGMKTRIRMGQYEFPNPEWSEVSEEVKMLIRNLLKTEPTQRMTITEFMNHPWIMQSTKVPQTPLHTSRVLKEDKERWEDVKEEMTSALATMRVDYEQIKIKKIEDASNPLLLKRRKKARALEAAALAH
# assay summary: MK2 Omnia continuous-read kinase assay for compound potency
# experimental conditions: [MK-2]=0.4 nM, [ATP]=10 μM, [ST3-Sox]=10 μM; room temperature
# From the text: Mitogen-Activated Protein Kinase-Activated Protein Kinase 2 Omnia® Assay for Compound Potency Assessment: The protocol below describes a continuous-read kinase assay optimized to measure potency of compounds against p38a activated, mitogen-activated protein kinase-activated protein kinase 2 (MAPKAP-K2 or MK2) enzyme. […]
recorded metric: IC50 (nM)

[
  {
    "structure smiles": "C=Cc1cc(C(F)(F)F)n(-c2ccc3c(ccc4sc5c(c43)NC[C@@H](C)NC5=O)n2)n1",
    "IC50 [nM]": 1000
  }
]

(A) C/C=C/c1ncc(COCC)c(-c2ccc3c(ccc4sc5c(c43)NC[C@@H](C)NC5=O)n2)n1
(B) C#Cc1cc(-c2ccc3c(ccc4sc5c(c43)NC[C@@H](C)NC5=O)n2)cc(C)n1
(C) C=Cc1cc(-c2ccc3c(ccc4sc5c(c43)NC[C@@H](C)NC5=O)n2)c(OC)cn1
Q) Returns the items ordered by IC50, from maximum to minimum. Order the labels as requested and list them.
A) A, B, C
(A: 371 nM, B: 152 nM, C: 20 nM)

---

# assay system: p38a activated, mitogen-activated protein kinase-activated protein kinase 2 (MAPKAP-K2 or MK2) enzyme (Homo sapiens (Human), UniProt P49137)
# assay summary: MK2 Omnia continuous-read kinase assay for compound potency
# experimental conditions: [MK-2]=0.4 nM, [ATP]=10 μM, [ST3-Sox]=10 μM; room temperature
# From the text: Mitogen-Activated Protein Kinase-Activated Protein Kinase 2 Omnia® Assay for Compound Potency Assessment: The protocol below describes a continuous-read kinase assay optimized to measure potency of compounds against p38a activated, mitogen-activated protein kinase-activated protein kinase 2 (MAPKAP-K2 or MK2) enzyme. […]
pIC50: −log10 of the molar value.
recorded metric: pIC50

For orientation, consider the following solved cases.
[
  {
    "structure smiles": "C=Cc1ncc(COCC)c(-c2ccc3c(ccc4sc5c(c43)NC[C@@H](C)NC5=O)n2)n1",
    "test result": 8.15
  },
  {
    "structure smiles": "C=Cc1cc(-c2ccc3c(ccc4sc5c(c43)NC[C@@H](C)NC5=O)n2)cc(N2CCOCC2)n1",
    "test result": 7.64
  },
  {
    "structure smiles": "C=Cc1ncc(-c2ccc3c(ccc4sc5c(c43)NC[C@@H](C)NC5=O)n2)[nH]1",
    "test result": 7.85
  },
  {
    "structure smiles": "C=Cc1cc(-c2ccc3c(ccc4sc5c(c43)NC[C@@H](C)NC5=O)n2)cc(N2CCC2)n1",
    "test result": 7.96
  },
  {
    "structure smiles": "C=Cc1ncc(-c2ccc3c(ccc4sc5c(c43)NC[C@@H](C)NC5=O)n2)s1",
    "test result": 7.82
  },
  {
    "structure smiles": "C#Cc1cc(-c2ccc3c(ccc4sc5c(c43)NC[C@@H](C)NC5=O)n2)cc(CN2CCOCC2)n1",
    "test result": 7.41
  }
]

(1) C=Cc1cc(-c2ccc3c(ccc4sc5c(c43)NC[C@@H](C)NC5=O)n2)cc(N2CCNCC2)n1
(2) C=Cc1cc(-c2ccc3c(ccc4sc5c(c43)NC[C@@H](C)NC5=O)n2)cc(CN2CCC3(CC2)CC3(F)F)n1
Q) Looking only at measured pIC50, which entry is lower, 1 or 2 ? Mark your selection by writing its label.
A) 2

---

# assay system: p38a activated, mitogen-activated protein kinase-activated protein kinase 2 (MAPKAP-K2 or MK2) enzyme (Homo sapiens (Human))
# assay summary: MK2 Omnia continuous-read kinase assay for compound potency
# experimental conditions: [MK-2]=0.4 nM, [ATP]=10 μM, [ST3-Sox]=10 μM; room temperature
pIC50: −log10 of the molar value.
recorded metric: pIC50

(a) C=Cc1nncn1-c1ccc2c(ccc3sc4c(c32)NC[C@@H](C)NC4=O)n1
(b) C[C@@H]1CNc2c(sc3ccc4nc(-c5cc(Cl)nc(N6CCN(C)CC6)c5)ccc4c23)C(=O)N1
(c) C=Cc1noc(C)c1-c1ccc2c(ccc3sc4c(c32)NC[C@@H](C)NC4=O)n1
(d) C=Cc1ncc(COC2(C)CCC2)c(-c2ccc3c(ccc4sc5c(c43)NC[C@@H](C)NC5=O)n2)n1
(e) C[C@@H]1CNc2c(sc3ccc4nc(-n5ccnc5Cl)ccc4c23)C(=O)N1
Q) Using measured pIC50, arrange the molecules from above in descending sequence. Order the labels as requested and list them.
A) a, b, e, c, d

---

# assay system: p38a activated, mitogen-activated protein kinase-activated protein kinase 2 (MAPKAP-K2 or MK2) enzyme (Homo sapiens (Human))
# assay summary: MK2 Omnia continuous-read kinase assay for compound potency
# experimental conditions: [MK-2]=0.4 nM, [ATP]=10 μM, [ST3-Sox]=10 μM; room temperature
pIC50: −log10 of the molar value.
recorded metric: pIC50

For orientation, consider the following solved cases.
[
  {
    "structure smiles": "C=Cc1nn(C)nc1-c1ccc2c(ccc3sc4c(c32)NC[C@@H](C)NC4=O)n1",
    "pIC50": 7.11
  },
  {
    "structure smiles": "C#Cc1ncc(F)c(-c2ccc3c(ccc4sc5c(c43)NC[C@@H](C)NC5=O)n2)n1",
    "pIC50": 8.30
  },
  {
    "structure smiles": "C=Cc1cc(-c2ccc3c(ccc4sc5c(c43)NC[C@@H](C)NC5=O)n2)c(CN2CC(F)(F)C2)cn1",
    "pIC50": 6.56
  },
  {
    "structure smiles": "COc1nnc(/C=C/CN(C)C)cc1-c1ccc2c(ccc3sc4c(c32)NC[C@@H](C)NC4=O)n1",
    "pIC50": 6.56
  },
  {
    "structure smiles": "C=Cc1cc(-c2ccc3c(ccc4sc5c(c43)NC[C@@H](C)NC5=O)n2)cc(CN2CCC(F)(F)CC2)n1",
    "pIC50": 7.51
  }
]

(I) C[C@@H]1CNc2c(sc3ccc4nc(-c5ccnc(/C=C/C(F)(F)F)c5)ccc4c23)C(=O)N1
(II) C[C@@H]1CNc2c(sc3ccc4nc(-n5ccc(Cl)n5)ccc4c23)C(=O)N1
(III) C=Cc1cc(-c2ccc3c(ccc4sc5c(c43)NC[C@@H](C)NC5=O)n2)c(OCCN2CCCC2)nn1
(IV) C=Cc1nc(C)nn1-c1ccc2c(ccc3sc4c(c32)NC[C@@H](C)NC4=O)n1
Q) Returns the items ordered by pIC50, from maximum to minimum. Order the labels as requested and list them.
A) IV, III, II, I

(I) C=C(CN1CCOCC1)c1cc(-c2ccc3c(ccc4sc5c(c43)NC[C@@H](C)NC5=O)n2)c(OC)nn1
(II) C#Cc1cccc(-c2ccc3c(ccc4sc5c(c43)NC[C@@H](C)NC5=O)n2)n1
Q) For the two items I and II , which reports the higher pIC50 value? Mark your selection by writing its label.
A) I

---

# assay system: p38a activated, mitogen-activated protein kinase-activated protein kinase 2 (MAPKAP-K2 or MK2) enzyme (Homo sapiens (Human), UniProt P49137)
# assay summary: MK2 Omnia continuous-read kinase assay for compound potency
# experimental conditions: [MK-2]=0.4 nM, [ATP]=10 μM, [ST3-Sox]=10 μM; room temperature
recorded metric: IC50 (µM)

(P) C=Cc1cc(-c2ccc3c(ccc4sc5c(c43)NC[C@@H](C)NC5=O)n2)nc(COCC)n1
(Q) C#Cc1nccc(-c2ccc3c(ccc4sc5c(c43)NC[C@@H](C)NC5=O)n2)c1F
Q) Looking only at measured IC50, which entry is lower, P or Q ? Mark your selection by writing its label.
A) P

(A) C[C@@H]1CNc2c(sc3ccc4nc(-c5cc(N6CCN(C)CC6)nc(Cl)n5)ccc4c23)C(=O)N1
(B) C=Cc1nc(CO)cc(-c2ccc3c(ccc4sc5c(c43)NC[C@@H](C)NC5=O)n2)n1
Q) For the two items A and B , which reports the higher IC50 value? Mark your selection by writing its label.
A) A

(A) C=Cc1cc(-c2ccc3c(ccc4sc5c(c43)NC[C@@H](C)NC5=O)n2)c(COCC)cn1
(B) C[C@@H]1CNc2c(sc3ccc4nc(-c5cc(Cl)ncc5C#N)ccc4c23)C(=O)N1
(C) C#Cc1cc(-c2ccc3c(ccc4sc5c(c43)NC[C@@H](C)NC5=O)n2)c(C(F)F)cn1
(D) C=Cc1cc(C(F)(F)F)nn1-c1ccc2c(ccc3sc4c(c32)NC[C@@H](C)NC4=O)n1
(E) C=Cc1cc(-c2ccc3c(ccc4sc5c(c43)NC[C@@H](C)NC5=O)n2)cc(C2CCN(C)CC2)n1
Q) Please put the entries in order of rising IC50. Order the labels as requested and list them.
A) B, E, C, A, D

(P) C=Cc1ncc(COC2CCOCC2)c(-c2ccc3c(ccc4sc5c(c43)NC[C@@H](C)NC5=O)n2)n1
(Q) C[C@@H]1CNc2c(sc3ccc4nc(-c5nc(Cl)ncc5C(F)(F)F)ccc4c23)C(=O)N1
(R) C=Cc1cc(-c2ccc3c(ccc4sc5c(c43)NC[C@@H](C)NC5=O)n2)cc(CN2CCC(OC(F)(F)F)CC2)n1
(S) C#Cc1cc(-c2ccc3c(ccc4sc5c(c43)NC[C@@H](C)NC5=O)n2)cc(CN2CCC(F)(F)CC2)n1
(T) C=Cc1cc(-c2ccc3c(ccc4sc5c(c43)NC[C@@H](C)NC5=O)n2)ncn1
Q) Returns the items ordered by IC50, from maximum to minimum. Order the labels as requested and list them.
A) R, S, P, T, Q

(a) C=Cc1cc(-c2ccc3c(ccc4sc5c(c43)NC[C@@H](C)NC5=O)n2)c(CN2CC3(COC3)C2)cn1
(b) C[C@@H]1CNc2c(sc3ccc4nc(-c5ccnc(Cl)c5)ccc4c23)C(=O)N1
(c) C=Cc1nc(C)c(C)n1-c1ccc2c(ccc3sc4c(c32)NC[C@@H](C)NC4=O)n1
Q) Please put the entries in order of rising IC50. Order the labels as requested and list them.
A) c, a, b
(c: 0.028 µM, a: 0.047 µM, b: 0.068 µM)
